Every entry's value here was drawn from paper PMC5540273.

Here the recorded %Inh is given for each entry.
# Test system: ACVR1;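 also: KINOMEscan kinase panel screen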
# EXPERIMENTAL SETUP: concentration: 1 μM, replicates: in singlicate; n = 1
Express the result in % but write the number alone.

Use the examples below as a reference point.
Tell me the measured %Inh of N#Cc1cnc2cc(-c3cnc(CNCCN4CCOCC4)s3)ccc2c1Nc1ccc(Oc2ccccc2)cc1 [GW664114] , please.
0

Tell me the measured %Inh of CN(c1ccc2c(c1)nc(NCc1ccccc1)n2C)c1ccnc(Nc2ccc(CS(C)(=O)=O)cc2)n1.Cl [GW811603] , please.
0

Tell me the measured %Inh of Cl.N#CCc1ccc(Nc2nccc(Nc3ccc(Oc4ccccc4)cc3)n2)cc1 [GW639905] , please.
26

Here is the next item to consider.
Tell me the measured %Inh of O=C(Nc1n[nH]c2nc(-c3ccccc3)ccc12)C1CC1 [SB-708999] , please.
6
